Sourced from paper PMC9611449

target: Collagenase from Clostridium histolyticum; test: Collagenase inhibition assay (FALGPA substrate); details: mean ± SD of three independent experiments
Overview of recorded IC50 for various molecules

Consider the worked cases shown below.
**Query** Short answer please: IC50, Collagenase from Clostridium histolyticum, entry O=c1oc2cc(O)c(O)cc2cc1-c1ccccc1Br [Compound 6, 3-(2′-Bromophenyl)-6,7-dihydroxycoumarin]
**Result** 140 µM

**Query** What do you have for O=c1oc2cc(O)c(O)cc2cc1-c1ccc(Br)cc1 [Compound 4, 3-(4′-Bromophenyl)-6,7-dihydroxycoumarin] ?
**Result** > 150 µM

**Query** What do you have for O=c1oc2ccc3ccccc3c2cc1-c1cc(O)cc(O)c1 ?
**Result** > 150 µM

**Query** What do you have for O=c1oc2cc(O)cc(O)c2cc1-c1cccc(Br)c1 [Compound 2, 3-(3′-Bromophenyl)-5,7-dihydroxycoumarin] ?
**Result** 110 µM

More entries:
**Query** Short answer please: IC50, Collagenase from Clostridium histolyticum, entry O=c1oc2ccc3ccccc3c2cc1-c1ccccc1O [Compound 15, 3-(2′-Hydroxyphenyl)benzo[f]coumarin]
**Result** > 150 µM

**Query** What do you have for O=c1oc2cc(O)c(O)cc2cc1-c1ccccc1O ?
**Result** 134 µM

**Query** What do you have for O=c1oc2ccc3ccccc3c2cc1-c1ccc(O)c(O)c1 ?
**Result** > 150 µM

**Query** What do you have for O=c1oc2cc(O)cc(O)c2cc1-c1ccccc1Br [Compound 3, 3-(2′-Bromophenyl)-5,7-dihydroxycoumarin] ?
**Result** 125 µM

* * *

Molecular target: porcine pancreatic elastase (Sus scrofa)
Assay: Elastase inhibition assay (SANA substrate)
Assay type: biochemical
Conditions: 50 μM; read-out: Enzyme inhibition Elastase
Experimental: Since the compounds were dissolved in DMSO, in the assays carried out without compounds, DMSO was added to the reaction mixture as blank control. […] Data from activity experiments were recorded using an Ultrospec 2100 spectrophotometer (Biochrom Ltd., Cambridge, UK). The inhibition of elastase was determined by measuring the production of p-nitroaniline during the reaction of the enzyme with the N-succ-(Ala)3-nitroanilide (SANA) substrate. […]
endpoint: inhibition at 50 µM (%)
# unit: % | format: bare number

Consider the worked cases shown below.
**Query** State the recorded inhibition at 50 µM for this entry: O=c1oc2cc(O)c(O)cc2cc1-c1cccc(Br)c1 [Compound 5, 3-(3′-Bromophenyl)-6,7-dihydroxycoumarin]
**Result** 68.4

**Query** What do you have for O=c1oc2cc(O)ccc2cc1-c1cccc(Br)c1 [Compound 10, 3-(3′-Bromophenyl)-7-hydroxycoumarin] ?
**Result** 38.9

**Query** What do you have for O=c1oc2cc(O)c(O)cc2cc1-c1cccc(O)c1 ?
**Result** 29.6

Continue with the next molecule.
**Query** State the recorded inhibition at 50 µM for this entry: O=c1oc2cc(O)c(O)cc2cc1-c1ccc(Br)cc1 [Compound 4, 3-(4′-Bromophenyl)-6,7-dihydroxycoumarin]
**Result** 30.5

* * *

biological target: porcine pancreatic elastase (Sus scrofa, UniProt P00772); assay: Elastase inhibition assay (SANA substrate); type: biochemical; details: 50 μM; read-out: Enzyme inhibition Elastase
Sequence (P00772 27-266): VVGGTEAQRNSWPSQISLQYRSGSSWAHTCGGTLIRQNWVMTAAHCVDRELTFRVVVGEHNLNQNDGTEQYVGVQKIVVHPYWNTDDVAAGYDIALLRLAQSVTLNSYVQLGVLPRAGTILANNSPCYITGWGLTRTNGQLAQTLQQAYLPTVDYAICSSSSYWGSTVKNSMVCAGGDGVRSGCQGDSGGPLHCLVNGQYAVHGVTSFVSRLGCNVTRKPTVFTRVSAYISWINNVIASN
Assign 1.0 whenever inhibition at 50 µM does not fall below 20%; assign 0.0 whenever it does.

Consider the following illustrative entries.
**Query** For this molecule, is measured inhibition at 50 µM 20% or higher? O=c1oc2ccc3ccccc3c2cc1-c1ccc(O)c(O)c1
**Result** 1.0

**Query** What do you have for O=c1oc2cc(O)cc(O)c2cc1-c1ccc(Br)cc1 [Compound 1, 3-(4′-Bromophenyl)-5,7-dihydroxycoumarin] ?
**Result** 0.0

More entries:
**Query** For this molecule, is measured inhibition at 50 µM 20% or higher? O=c1oc2cc(O)c(O)cc2cc1-c1ccccc1O
**Result** 1.0

**Query** What do you have for O=c1oc2cc(O)c(O)cc2cc1-c1ccccc1Br [Compound 6, 3-(2′-Bromophenyl)-6,7-dihydroxycoumarin] ?
**Result** 1.0

**Query** What do you have for O=c1oc2c(O)c(O)ccc2cc1-c1ccc(Br)cc1 [Compound 7, 3-(4′-Bromophenyl)-7,8-dihydroxycoumarin] ?
**Result** 0.0

**Query** What do you have for O=c1oc2ccc3ccccc3c2cc1-c1cc(O)cc(O)c1 ?
**Result** 1.0

**Query** What do you have for O=c1oc2c(O)c(O)ccc2cc1-c1cccc(Br)c1 [Compound 8, 3-(3′-Bromophenyl)-7,8-dihydroxycoumarin] ?
**Result** 0.0

**Query** What do you have for O=c1oc2ccc3ccccc3c2cc1-c1ccc(O)cc1 [Compound 13, 3-(4′-Hydroxyphenyl)benzo[f]coumarin] ?
**Result** 1.0

**Query** What do you have for O=c1oc2ccc3ccccc3c2cc1-c1cccc(O)c1 [Compound 14, 3-(3′-Hydroxyphenyl)benzo[f]coumarin] ?
**Result** 1.0
